measurement.target: Wee1 kinase domain (Homo sapiens, UniProt P30291)
Construct: Wee1 kinase domain was purchased from Carna (catalog #05-177); purchased Carna 05-177
Sequence (P30291 299-569 limits assumed): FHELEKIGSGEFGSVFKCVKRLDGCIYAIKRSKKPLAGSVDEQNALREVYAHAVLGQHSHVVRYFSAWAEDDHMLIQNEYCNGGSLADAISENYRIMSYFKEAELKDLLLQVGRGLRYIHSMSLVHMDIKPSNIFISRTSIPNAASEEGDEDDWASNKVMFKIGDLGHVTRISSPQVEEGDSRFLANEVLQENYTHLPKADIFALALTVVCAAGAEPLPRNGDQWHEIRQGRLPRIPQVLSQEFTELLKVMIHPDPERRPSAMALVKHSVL
procedure.details: Wee1 Kinase Biochemical Assay (ADP-Glo)
applied.conditions: Wee1 kinase domain, 15 uM ATP, ADP-Glo
measurement.name: IC50

compound	IC50
CNCc1cccc(N2c3nc(Nc4ccc(N5CCOCC5)c(C)c4)ncc3[C@]3(C)COC(C)(C)C[C@H]23)n1 (single isomer, unassigned)	10 to 100 nM
Cc1cc(Nc2ncc3c(n2)N(c2cccc(N=S(C)(C)=O)n2)[C@@H]2CC(C)(C)OC[C@]32C)ccc1N1CCN(C)CC1 (single isomer, unassigned)	< 10 nM

Provide one value: measured IC50 of CNCc1cccc(N2c3nc(Nc4ccc(N5C6CCC5COC6)cc4)ncc3[C@]3(C)COC(C)(C)C[C@H]23)n1 (single isomer, unassigned)
< 10 nM

Provide one value: measured IC50 of C[C@H]1COC(=O)N1c1cccc(N2c3nc(Nc4ccc([C@H]5CCN(C)C5)nc4)ncc3[C@]3(C)COC(C)(C)C[C@H]23)n1 (single isomer, unassigned)
100 to 1000 nM

Provide one value: measured IC50 of C[C@@H]1CN(c2ccc(Nc3ncc4c(n3)N(c3cccc(N5C(=O)OC[C@@H]5C)n3)[C@@H]3CC(C)(C)OC[C@]43C)cc2)CCN1C (single isomer, unassigned)
< 10 nM

Provide one value: measured IC50 of CNCc1cccc(N2c3nc(Nc4ccc(C5CCN(C)CC5)c(C)c4)ncc3[C@]3(C)COC(C)(C)C[C@H]23)n1 (single isomer, unassigned)
100 to 1000 nM

Provide one value: measured IC50 of C[C@@H]1CN(c2ccc(Nc3ncc4c(n3)N(c3cccc(N5C(=O)OC[C@@H]5C)n3)[C@H]3CC(C)(C)OC[C@@]43C)cc2)CCN1C (single isomer, unassigned)
10 to 100 nM

Provide one value: measured IC50 of C[C@H]1COC(=O)N1c1cccc(N2c3nc(N)ncc3[C@]3(C)COC(C)(C)C[C@H]23)n1 (single isomer, unassigned)
100 to 1000 nM

Provide one value: measured IC50 of C[C@H]1COC(=O)N1c1cccc(N2c3nc(Nc4ccc(O[C@@H]5CCNC5)cc4)ncc3[C@]3(C)COC(C)(C)C[C@H]23)n1 (single isomer, unassigned)
10 to 100 nM

Provide one value: measured IC50 of CN1CC[C@](C)(c2ccc(Nc3ncc4c(n3)N(c3cccc(N=S(C)(C)=O)n3)[C@@H]3CC(C)(C)OC[C@]43C)cc2)C1 (single isomer, unassigned)
< 10 nM

Provide one value: measured IC50 of CN1CC[C@@H](n2ccc(Nc3ncc4c(n3)N(c3cccc(N=S(C)(C)=O)n3)[C@@H]3CC(C)(C)OC[C@]43C)n2)C1 (single isomer, unassigned)
< 10 nM

Provide one value: measured IC50 of CN1CCC(c2ccc(Nc3ncc4c(n3)N(c3cccc(N=S(C)(C)=O)n3)[C@H]3CC(C)(C)OC[C@@]43C)cc2)CC1 (single isomer, unassigned)
< 10 nM

Provide one value: measured IC50 of CNCc1cccc(N2c3nc(Nc4ccc([C@H]5CNC(=O)C5)cc4)ncc3[C@]3(C)COC(C)(C)C[C@H]23)n1 (single isomer, unassigned)
10 to 100 nM

Provide one value: measured IC50 of Cc1cc(Nc2ncc3c(n2)N(c2cccc(N=S(C)(C)=O)n2)[C@@H]2CC(C)(C)OC[C@]32C)ccc1[C@H]1CCNC1 (single isomer, unassigned)
< 10 nM

Provide one value: measured IC50 of CN1CC[C@@H](c2ccc(Nc3ncc4c(n3)N(c3cccc(N=S(C)(C)=O)n3)[C@H]3CC(C)(C)OC[C@@]43C)cc2)C1 (single isomer, unassigned)
100 to 1000 nM

Provide one value: measured IC50 of CNCc1cccc(N2c3nc(Nc4ccc([C@H]5CC(=O)N(C)C5)cc4)ncc3[C@]3(C)COC(C)(C)C[C@H]23)n1 (single isomer, unassigned)
100 to 1000 nM

Provide one value: measured IC50 of Cc1cc(Nc2ncc3c(n2)N(c2cccc(N4C(=O)OC[C@@H]4C)n2)[C@@H]2CC(C)(C)OC[C@]32C)ccc1[C@H]1CCNC1 (single isomer, unassigned)
< 10 nM

Provide one value: measured IC50 of CN1Cc2cc(Nc3ncc4c(n3)N(c3cccc(N=S(C)(C)=O)n3)[C@H]3CC(C)(C)OC[C@@]43C)ccc2C(C)(C)C1 (single isomer, unassigned)
10 to 100 nM

Provide one value: measured IC50 of CN1CC(n2cc(Nc3ncc4c(n3)N(c3cccc(N=S(C)(C)=O)n3)[C@@H]3CC(C)(C)OC[C@]43C)cn2)C1 (single isomer, unassigned)
< 10 nM

Provide one value: measured IC50 of CNCc1cccc(N2c3nc(Nc4ccc(C(=O)N5CCOCC5)cc4)ncc3[C@@]3(C)COC(C)(C)C[C@@H]23)n1 (single isomer, unassigned)
< 10 nM

Provide one value: measured IC50 of Cc1cc(Nc2ncc3c(n2)N(c2cccc(N4C(=O)OC[C@@H]4C)n2)[C@@H]2CC(C)(C)OC[C@]32C)ccc1O[C@@H]1CCN(C)C1 (single isomer, unassigned)
< 10 nM

Data origin, for the record: patent US20260166039A1
